The measurements presented in this section are drawn from patent US10898481B2.

Tested target: hA2a/CHO (Homo sapiens (Human), UniProt P29274)
Sequence (P29274 whole entry): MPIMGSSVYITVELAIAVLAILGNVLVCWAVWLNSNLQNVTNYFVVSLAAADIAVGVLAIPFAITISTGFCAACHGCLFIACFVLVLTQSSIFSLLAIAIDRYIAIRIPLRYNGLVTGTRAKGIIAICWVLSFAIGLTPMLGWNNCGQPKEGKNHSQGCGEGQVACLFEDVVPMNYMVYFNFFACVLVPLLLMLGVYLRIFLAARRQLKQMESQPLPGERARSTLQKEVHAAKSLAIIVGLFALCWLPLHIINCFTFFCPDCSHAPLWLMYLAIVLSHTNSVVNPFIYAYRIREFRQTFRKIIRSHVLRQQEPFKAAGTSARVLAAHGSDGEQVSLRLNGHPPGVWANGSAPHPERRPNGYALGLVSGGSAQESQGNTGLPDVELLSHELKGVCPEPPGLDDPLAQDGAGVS
Protocol: cAMP inhibition assay in hA2a/CHO cells, 10 μM adenosine;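 also: compounds added to cells 30 min ahead of adenosine, then a further 30 min at 37 °C with adenosine before cAMP detection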
Format: cell-based
Settings: read-out: cAMP & FLIPR IC50 (nM) hA2a
Binarize IC50 at 3 nM; below is Fulfilled, at or above is Not fulfilled.

Answered examples (9):
1) CNc1cccnc1CNC(=O)c1nc(-c2ccc(=O)n(C)c2)c(-c2ncco2)nc1N = Not fulfilled
2) Cc1cnc2ccc(-c3nc(C(=O)NCC4CCN(C)C4=O)c(N)nc3-c3ccc(F)cc3)cn12 (single isomer, unassigned; isomer 2) [Example 256] = Fulfilled
3) Cc1cnc2ccc(-c3nc(C(=O)NC[C@H]4CCOC4)c(N)nc3-n3nccn3)cn12 = Fulfilled
4) Cc1cnc2ccc(-c3nc(C(=O)NCCn4ccccc4=O)c(N)nc3-c3ncco3)cn12 = Not fulfilled
5) COC(C)CNC(=O)c1nc(-c2ccc3ncc(C)n3c2)c(-c2ncco2)nc1N (racemic) [Example 228] = Fulfilled
6) Nc1nc(-c2ncco2)c(-c2ccc3nccn3c2)nc1C(=O)NCc1ncccc1F = Not fulfilled
7) Cc1cnc2ccc(-c3nc(C(=O)NCC4CN(C)CCO4)c(N)nc3-c3ccc(F)cc3)cn12 (single isomer, unassigned; isomer 2) [Example 250] = Not fulfilled
8) Cc1cnc2ccc(-c3nc(C(=O)NCc4cccc(N5CC(N(C)C)C5)n4)c(N)nc3-c3ncco3)cn12 = Fulfilled
9) Cc1cnc2ccc(-c3nc(C(=O)NCC4OCC4(C)C)c(N)nc3-c3ncco3)cn12 (single isomer, unassigned; isomer 1) [Example 288] = Fulfilled

Please look at the following molecule next.
Q) Consider `Cc1cnc2ccc(-c3nc(C(=O)NC[C@H]4CCCO4)c(N)nc3-c3ncco3)cn12` . Does its IC50 lie strictly below 3 nM?
A) Fulfilled
